- Test details: Solubility of compound in water
- Format: physicochemical

>  <Chemical smiles>
O=C(/C(=C/c1ccccc1)C[N+](=O)[O-])c1ccccc1

>  <solubility [µg/mL]>
33.2

$$$$

###

- Test details: Stability of the compound in pH 7.4 saline assessed as half life at 200 uM measured after 24 hrs by HPLC analysis
- Type: physicochemical
- Conditions: saline pH 7.4, pH 7.4

>  <Chemical smiles>
O=C(/C(=C/c1ccccc1)C[N+](=O)[O-])c1ccccc1

>  <Units of measure>
h

>  <half-life at 200 µM>
38.5

$$$$

###

- Test details: Lipo-hydro partition coefficient, logP of compound
- Format: physicochemical
- Conditions: octanol/water
Quantity kind: logP

>  <Chemical smiles>
O=C(/C(=C/c1ccccc1)C[N+](=O)[O-])c1ccccc1

>  <Result number>
0.54

$$$$

###

- Test details: Stability of the compound in pH 6 phosphate buffer assessed as half life at 200 uM measured after 24 hrs by HPLC analysis
- Format: physicochemical
- Conditions: phosphate buffer pH 6, pH 6

>  <Chemical smiles>
O=C(/C(=C/c1ccccc1)C[N+](=O)[O-])c1ccccc1

>  <half-life at 200 µM (h)>
1.1

$$$$

###

- Test details: Stability of the compound in rat plasma assessed as half life at 200 uM measured after 24 hrs by HPLC analysis
- Format: ADME, cell-free

>  <Chemical smiles>
O=C(/C(=C/c1ccccc1)C[N+](=O)[O-])c1ccccc1

>  <half-life at 200 µM [h]>
5.3

$$$$

###

- Test system: Cortical neurone
- Test details: Induction of Nrf2 protein level in OGD/R-induced rat primary cortical neuron pretreated at 1.8 uM for 24 hrs followed by subjected to OGD for 2 hrs measured after 24 hrs under normoxic condition by Western blot analysis
- Assay type: functional, tissue-based
Activity calls are given as the source filed them. The rule behind the calls is not given here.
Classes used: Yes (active), No (inactive)

>  <Molecule>
O=C(/C(=C/c1ccccc1)C[N+](=O)[O-])c1ccccc1

>  <Discrete label>
Yes

$$$$
>  <Molecule>
CC(C)(C)c1cc(O)ccc1O

>  <Discrete label>
Yes

$$$$
>  <Molecule>
O=N[O-].[Na+] [SODIUM NITRITE]

>  <Discrete label>
No

$$$$
>  <Molecule>
C/C(=C\c1ccccc1)C(=O)c1ccccc1

>  <Discrete label>
Yes

$$$$
